// MIC lookup, one value per entry
Test system: Mycobacterium bovis BCG containing pMV361-lux (BCG:361-lux)
testSummary: microbe, parasite or virus in culture
Format: cell-based
testSettings: Mycobacterium tuberculosis variant bovis BCG, BCG, 48 h

Example cases with answers are listed next.
* CC[C@@H](CO)NCCN[C@@H](CC)CO | > 8 µg/mL
* O=C(O)c1cn(C2CC2)c2cc(N3CCNCC3)c(F)cc2c1=O | > 2 µg/mL
* [H]/N=C(/N)N[C@H]1[C@H](O)[C@@H](O)[C@H](O[C@@H]2O[C@@H](C)[C@](O)(C=O)[C@H]2O[C@@H]2O[C@@H](CO)[C@H](O)[C@@H](O)[C@@H]2NC)[C@@H](N/C(N)=N\[H])[C@@H]1O | 1 µg/mL
* NCC[C@H](O)C(=O)N[C@@H]1C[C@H](N)[C@@H](O[C@H]2O[C@H](CN)[C@@H](O)[C@H](O)[C@H]2O)[C@H](O)[C@H]1O[C@H]1O[C@H](CO)[C@@H](O)[C@H](N)[C@H]1O | > 2 µg/mL
* NNC(=O)c1ccncc1 | > 0.5 µg/mL

Q. Identify measured MIC associated with CO[C@H]1/C=C/O[C@@]2(C)Oc3c(C)c(O)c4c(O)c(c(/C=N/N5CCN(C)CC5)c(O)c4c3C2=O)NC(=O)/C(C)=C\C=C\[C@H](C)[C@H](O)[C@@H](C)[C@@H](O)[C@@H](C)[C@H](OC(C)=O)[C@@H]1C
A. > 0.25 µg/mL

Q. Read the entry CC[C@H]1OC(=O)[C@H](C)[C@@H](O[C@H]2C[C@@](C)(OC)[C@@H](O)[C@H](C)O2)[C@H](C)[C@@H](O[C@@H]2O[C@H](C)C[C@H](N(C)C)[C@H]2O)[C@](C)(OC)C[C@@H](C)C(=O)[C@H](C)[C@@H](O)[C@]1(C)O and write its reported MIC.
A. > 0.5 µg/mL
